Biological target: BRD4 Bromodomain 2 (BRD4 BD2) (Homo sapiens)
Construct: 333-460 were cloned, expressed, and purified to homogeneity
Assay: AlphaScreen binding assay, BRD4 BD2
Conditions: His-tagged BRD4 BD2 100 nM, biotinylated H4 (1-21) K5/8/12/16 tetra-acetylated peptide 100 nM, compounds listed under IC50 range headings
pIC50: −log10 of the molar value.
readout name: pIC50

CC(=O)N1c2ccc(-c3cnn(C4CCNCC4)c3)c(Oc3ccc(F)cc3)c2CC[C@@H]1C [I-190]: 6.30 to 7.30
CC(=O)N1c2ccc(-c3cnn(C4CCNCC4)c3)c(Oc3ncc(C(F)(F)F)cc3F)c2CC[C@@H]1C [I-521]: > 7.30
CC(=O)N1c2ccc(-c3cnn(C4CC4)c3)c(OC(C)(C)C(N)=O)c2CC[C@@H]1C [I-40]: 6.30 to 7.30
C[C@H]1CCc2c(ccc(-c3cnn(C4CCNCC4)c3)c2Oc2ccccc2C#N)N1C(=O)C1CC1 [I-150]: > 7.30

Value wanted: pIC50 (BRD4 Bromodomain 2 (BRD4 BD2) (Homo sapiens)) of entry COC(=O)N1c2ccc(-c3cnn(CC(C)(C)O)c3)c(Oc3ncc(C4CC4)cn3)c2CC[C@@H]1C [I-571]
6.30 to 7.30

Request: pIC50, test system BRD4 Bromodomain 2 (BRD4 BD2) (Homo sapiens), entry C[C@H]1CCc2c(ccc(-c3cnn(C4CNC4)c3)c2OC2CCC2)N1C(=O)C1CC1 [I-101]
> 7.30

For the record COC(=O)N1c2ccc(-c3cnn(C4CC4)c3)c(OCC(=O)N(C)C3CC3)c2CC[C@@H]1C [I-22] , what value of pIC50 is listed for BRD4 Bromodomain 2 (BRD4 BD2) (Homo sapiens)?
> 7.30

Which measured pIC50 belongs to CC(=O)N1c2ccc(-c3cnn(CCS(C)(=O)=O)c3)c(OCC(=O)N3CCCC3)c2CC[C@@H]1C [I-428] , tested on BRD4 Bromodomain 2 (BRD4 BD2) (Homo sapiens)?
6.30 to 7.30

* * *

Target: BRD4 Bromodomain 1 (BRD4 BD1) (Homo sapiens, UniProt O60885)
Construct: 44-168 and BRD4 BD2
Assay: AlphaScreen binding assay, BRD4 BD1
Details: His-tagged BRD4 BD1 50 nM, biotinylated H4 (1-21) K5/8/12/16 tetra-acetylated peptide 50 nM, compounds listed under IC50 range headings
Examples of molecules with documented IC50 follow.

Here are 6 molecules together with their reported answers.
C[C@H]1CCc2c(ccc(-c3cnn(C4CCNCC4)c3)c2Oc2ccc(F)cc2)N1C(=O)C1CC1: 100 to 1000 nM
CC(=O)N1c2ccc(-c3cnn(C4CCNCC4)c3)c(Oc3ccccc3F)c2CC[C@@H]1C: 100 to 1000 nM
C[C@H]1CCc2c(ccc(-c3cn(C)nn3)c2Oc2ccc(F)cc2)N1C(=O)C1CC1: 100 to 1000 nM
CCCOc1c(-c2cnn(C3CC3)c2)ccc2c1CC[C@H](C)N2C(C)=O: 100 to 1000 nM
CC(=O)N1c2ccc(-c3cnn(C4CCNCC4)c3)c(Oc3cc(N4CCOCC4)ncn3)c2CC[C@@H]1C: 1000 to 10000 nM
C[C@H]1CCc2c(Oc3ccccc3)c(-c3cnn(C4CCNCC4)c3)cc(F)c2N1C(=O)C1CC1: 100 to 1000 nM

What value of IC50 on BRD4 Bromodomain 1 (BRD4 BD1) (Homo sapiens, UniProt O60885) does `COC(=O)N1c2ccc(-c3cnn(C4CCNCC4)c3)c(Oc3cccc(C#N)c3)c2CC[C@@H]1C` have?
1000 to 10000 nM

What measured IC50 is associated with `CC(=O)N1c2ccc(-c3cnn(C4CC4)c3)c(OCC3CCCCC3)c2CC[C@@H]1C` on BRD4 Bromodomain 1 (BRD4 BD1) (Homo sapiens, UniProt O60885)?
100 to 1000 nM

Quick check: IC50 on BRD4 Bromodomain 1 (BRD4 BD1) (Homo sapiens, UniProt O60885), item `COC(=O)N1c2ccc(-c3cnn(CC(C)(C)O)c3)c(OCC3CCCC3)c2CC[C@@H]1C` ?
1000 to 10000 nM

Test system BRD4 Bromodomain 1 (BRD4 BD1) (Homo sapiens, UniProt O60885); read-out IC50; what value for CC(=O)N1c2ccc(-c3cnn(C4CC4)c3)c(OCC3CC3(F)F)c2CC[C@@H]1C (stereo partly drawn) ?
< 100 nM

BRD4 Bromodomain 1 (BRD4 BD1) (Homo sapiens, UniProt O60885) / IC50 / `COC(=O)N1c2ccc(-c3cnn(C4CC4)c3)c(OCCC3COC3)c2CC[C@@H]1C` : value?
1000 to 10000 nM

Param readout= IC50; system= BRD4 Bromodomain 1 (BRD4 BD1) (Homo sapiens, UniProt O60885); entry= `COc1cccc(Oc2c(-c3cnn(C4CCNCC4)c3)cc(F)c3c2CC[C@H](C)N3C(=O)C2CC2)c1` ; returns value.
100 to 1000 nM
